molecular target: UniProt P41144; assay: Agonist activity at kappa opioid receptor in myenteric plexus muscle from guinea pig
Sequence (P41144 whole entry): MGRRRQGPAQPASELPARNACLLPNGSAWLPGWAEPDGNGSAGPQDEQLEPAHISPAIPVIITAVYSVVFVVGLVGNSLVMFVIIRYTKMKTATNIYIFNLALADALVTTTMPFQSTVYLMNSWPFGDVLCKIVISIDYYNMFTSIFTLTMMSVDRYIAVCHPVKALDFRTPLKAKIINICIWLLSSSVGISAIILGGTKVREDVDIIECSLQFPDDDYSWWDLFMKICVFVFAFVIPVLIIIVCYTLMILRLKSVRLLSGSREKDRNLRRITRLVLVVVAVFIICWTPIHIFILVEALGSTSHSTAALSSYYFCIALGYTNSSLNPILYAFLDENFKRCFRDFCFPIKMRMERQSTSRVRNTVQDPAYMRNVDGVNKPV
EXPERIMENTAL_READOUT: IC50 (µM)
Hi! Could you send only the number? It should be in µM, unit omitted.

Solved cases (3 shown):
COc1cccc([C@@H](c2ccc3c(c2)CN(CC(=O)O)CC3)N2C[C@@H](C)N(Cc3ccccc3)C[C@@H]2C)c1 :: 1.26
C[C@@H]1CN([C@@H](c2cccc(O)c2)c2ccc3c(c2)CN(C(=O)CC(=O)O)CC3)[C@@H](C)CN1Cc1ccccc1 :: 0.398
C[C@@H]1CN([C@@H](c2cccc(O)c2)c2ccc3c(c2)CN(C(=O)c2ccccc2C(=O)O)C3)[C@@H](C)CN1Cc1ccccc1 :: 3.98

What is its IC50 for UniProt P41144? Entry: C[C@@H]1CN([C@@H](c2cccc(O)c2)c2ccc3c(c2)CN(CC(=O)O)CC3)[C@@H](C)CN1Cc1ccccc1
1

What is its IC50 for UniProt P41144? Entry: C=CCN1C[C@H](C)N([C@H](c2ccc(C(=O)N(CC)CC)cc2)c2cccc(OC)c2)C[C@H]1C
1.26

Where do these numbers come from? They come from ChEMBL document CHEMBL1138105.
